System: Plasmodium berghei
Assay: Screen against P. berghei liver stage (PbLuc), transformed with Luciferase, at 2uM
Format: functional, HepG2
Conditions: tested at 2 uM
Hit rate of the full screen: of about 68,000 compounds, about 2,700 (4%) showed an effect of 50% or more. This is one part of a sample in which strong results are shown more often than they occur.
# cutoff 30% applies to INHIBITION; >= gives fulfilled, < gives not fulfilled

Examples with answers:
{"COMPOUND": "CN1CCC(N(CCc2ccccc2)C(=O)COCC2CCCO2)CC1 (stereo not drawn)", "TGT": "Plasmodium berghei", "CAT": "fulfilled"}
{"COMPOUND": "Cc1ccc(C(=O)N(Cc2ccc(F)cc2F)C2CC2)c(=O)[nH]1", "TGT": "Plasmodium berghei", "CAT": "not fulfilled"}
{"COMPOUND": "Cc1ccc(CC(=O)N2CCCN(Cc3nccn3C)CC2)cn1", "TGT": "Plasmodium berghei", "CAT": "not fulfilled"}
{"COMPOUND": "CC(C)c1nc2c(n1C)CCN(CC(=O)Nc1nccs1)C2", "TGT": "Plasmodium berghei", "CAT": "not fulfilled"}
{"COMPOUND": "Cc1csc(NC(=O)CN2CCc3c(nc(C4CC4)n3C)C2)n1", "TGT": "Plasmodium berghei", "CAT": "not fulfilled"}

Given the entry CN(C)C[C@@H]1CN(C(=O)c2cc(-c3ccccc3)n[nH]2)C[C@@H]1CO , answer whether its INHIBITION meets or surpasses 30%.
not fulfilled

Given the entry CCC(=O)NCc1cc(Br)ccc1OC(F)F , answer whether its INHIBITION meets or surpasses 30%.
fulfilled

Given the entry CC(NC(=O)CCn1cccn1)c1ccc(-n2ccnn2)cc1 (stereo not drawn) , answer whether its INHIBITION meets or surpasses 30%.
not fulfilled

Where these numbers come from: ChEMBL document CHEMBL4513216
